Dear all, this message contains pKi results, target or system Cyclin-dependent kinase 2/cyclin E1 (Homo sapiens, UniProt P24941).
pKi: −log10 of the molar value.

{"columns": ["molecule", "pKi"],
 "data": [
  ["CCOCc1cc2cnc(NC3CCN(S(C)(=O)=O)CC3)nc2n(C2CCCC2)c1=O", 7.08],
  ["CC(C)n1c(=O)ccc2cnc(NC3CCN(S(C)(=O)=O)CC3)nc21", 8.37],
  ["CC(C)OCc1cc2cnc(NC3CCN(S(C)(=O)=O)CC3)nc2n(C2CCCC2)c1=O", 5.87],
  ["CS(=O)(=O)N1CCC(Nc2ncc3cc(COC4CC4)c(=O)n(C4CCCC4)c3n2)CC1", 7.42],
  ["CCC(C)n1c(=O)ccc2cnc(NC3CCN(S(C)(=O)=O)CC3)nc21 (single isomer, unassigned; (-))", 8.79]
]}
